Experiment: Cytotoxicity against mock-infected MDBK cells assessed as reduction in cell viability after 96 hrs by MTT assay
Type: cell-based, Bos taurus
Conditions: cattle
Label TRUE when CC50 at 96 h is strictly below 60 µM; otherwise label FALSE.

-- ask Consider `O=[N+]([O-])c1cccc(/N=N\C2=C3CCCCN3CCC2)c1` . Does its CC50 at 96 h lie strictly below 60 µM?
-- reply FALSE

-- ask Consider `FC(F)(F)c1cc(/N=N\C2=C3CCCCN3CCC2)ccc1Cl` . Does its CC50 at 96 h lie strictly below 60 µM?
-- reply TRUE

-- ask Consider `Clc1ccc(/N=N\C2=C3CCCN3CCC2)cc1` . Does its CC50 at 96 h lie strictly below 60 µM?
-- reply TRUE

-- ask Consider `c1ccc2c(/N=N\C3=C4CCCN4CCC3)cccc2c1` . Does its CC50 at 96 h lie strictly below 60 µM?
-- reply FALSE

-- ask Consider `CN1C=C(/N=N/c2ccc(F)cc2)CCC1` . Does its CC50 at 96 h lie strictly below 60 µM?
-- reply TRUE

-- ask Consider `Cc1ccc(/N=N/C=C2\CCCN2Cc2ccccc2)cc1` . Does its CC50 at 96 h lie strictly below 60 µM?
-- reply TRUE

-- ask Consider `CN1C=C(/N=N/c2ccc([N+](=O)[O-])cc2)CCC1` . Does its CC50 at 96 h lie strictly below 60 µM?
-- reply FALSE

-- ask Consider `O=[N+]([O-])c1cc(/N=N\C2=C3CCCCN3CCC2)ccc1Cl` . Does its CC50 at 96 h lie strictly below 60 µM?
-- reply TRUE

-- ask Consider `C(=C\N1CCOCC1)/N=N/c1ccccc1` . Does its CC50 at 96 h lie strictly below 60 µM?
-- reply TRUE

====

Tested on: Coxsackievirus B2
Test: Antiviral activity against CVB2 infected in Vero76 cells assessed as reduction in virus plaque formation after 4 days by MTT assay
Assay type: functional, organism-based
Conditions: Enterovirus B, Vero 76, 96 h
Please provide measured EC50 for the entries that follow.
Respond numerically; units are µM and should not be typed.

-- ask Recorded EC50 of `O=[N+]([O-])c1ccc(N2CCN(/C=C/N=N/c3ccccc3)CC2)cc1` , please.
-- reply 14

-- ask Recorded EC50 of `C(=C\N1CCN(c2ccccn2)CC1)/N=N/c1ccccc1` , please.
-- reply 6

-- ask Recorded EC50 of `FC(F)(F)c1cc(/N=N\C2=C3CCCCN3CCC2)cc(C(F)(F)F)c1` , please.
-- reply 41

-- ask Recorded EC50 of `Clc1ccc2c(/N=N/C3=C4CCCCN4CCC3)ccnc2c1` , please.
-- reply 51

-- ask Recorded EC50 of `Clc1ccc(N2CCN(/C=C/N=N/c3ccccc3)CC2)cc1` , please.
-- reply 7

-- ask Recorded EC50 of `C(=C\N1CCOCC1)/N=N/c1ccccc1` , please.
-- reply 7

-- ask Recorded EC50 of `CN1C=C(/N=N/c2ccc(Cl)c(C(F)(F)F)c2)CCC1` , please.
-- reply 34

====

Please provide measured CC50 at 96 h for the entries that follow.
Test: Cytotoxicity against mock-infected MDBK cells assessed as reduction in cell viability after 96 hrs by MTT assay
Assay type: cell-based, Bos taurus
Conditions: cattle
Respond numerically; units are µM and should not be typed.

-- ask Recorded CC50 at 96 h of `CN1CCC/C1=C\N=N\c1cccc(C(F)(F)F)c1` , please.
-- reply 90

-- ask Recorded CC50 at 96 h of `Clc1ccc(/N=N/C=C/N2CCCC2)cc1` , please.
-- reply 30

-- ask Recorded CC50 at 96 h of `Brc1cccc(/N=N\C2=C3CCCCN3CCC2)c1` , please.
-- reply 10

-- ask Recorded CC50 at 96 h of `CN1/C(=C\N=N\c2ccc(Cl)cc2)C(C)(C)c2ccccc21` , please.
-- reply 72

-- ask Recorded CC50 at 96 h of `C(/N=N/c1ccccc1)=C1/CCCN1Cc1ccccc1` , please.
-- reply 74

-- ask Recorded CC50 at 96 h of `C(=C\N1CCCC1)/N=N/c1ccccc1` , please.
-- reply 63

-- ask Recorded CC50 at 96 h of `FC(F)(F)c1cc(/N=N/C=C2\CCCN2Cc2ccccc2)ccc1Cl` , please.
-- reply 14

-- ask Recorded CC50 at 96 h of `Clc1ccc(N2CCN(/C=C/N=N/c3ccccc3)CC2)cc1` , please.
-- reply 7.5

-- ask Recorded CC50 at 96 h of `Clc1ccc(/N=N\C2=C3CCCCN3CCC2)cc1Cl` , please.
-- reply 30

-- ask Recorded CC50 at 96 h of `CN1/C(=C\N=N\c2ccccc2)C(C)(C)c2ccccc21.[O-][Cl+3]([O-])([O-])O` , please.
-- reply 20

-- ask Recorded CC50 at 96 h of `C(=C\N1CCSCC1)/N=N/c1ccccc1` , please.
-- reply 14

-- ask Recorded CC50 at 96 h of `FC(F)(F)c1cc(/N=N\C2=C3CCCN3CCC2)ccc1Cl` , please.
-- reply 21

-- ask Recorded CC50 at 96 h of `CN1C=C(/N=N/c2cc(C(F)(F)F)cc(C(F)(F)F)c2)CCC1` , please.
-- reply 64

-- ask Recorded CC50 at 96 h of `FC(F)(F)c1cccc(/N=N\C2=C3CCCCN3CCC2)c1` , please.
-- reply 8

====

Please provide measured CC50 at 96 h for the entries that follow.
Experiment: Cytotoxicity against mock-infected BHK cells assessed as reduction in cell viability after 96 hrs by MTT assay
Assay type: cell-based, Mesocricetus auratus
Conditions: hamster
Respond numerically; units are µM and should not be typed.

-- ask Recorded CC50 at 96 h of `Clc1ccc(/N=N\C2=C3CCCCN3CCC2)cc1Cl` , please.
-- reply 54

-- ask Recorded CC50 at 96 h of `CN1/C(=C\N=N\c2ccccc2)C(C)(C)c2ccccc21.[O-][Cl+3]([O-])([O-])O` , please.
-- reply 47

-- ask Recorded CC50 at 96 h of `FC(F)(F)c1cccc(/N=N\C2=C3CCCCN3CCC2)c1` , please.
-- reply 40

-- ask Recorded CC50 at 96 h of `CN1C=C(/N=N/c2ccc(Cl)c(C(F)(F)F)c2)CCC1` , please.
-- reply 44

-- ask Recorded CC50 at 96 h of `FC(F)(F)c1cccc(N2CCN(/C=C/N=N/c3ccccc3)CC2)c1` , please.
-- reply 43

-- ask Recorded CC50 at 96 h of `CN1CCC/C1=C\N=N\c1ccc(F)c(C(F)(F)F)c1` , please.
-- reply 41

-- ask Recorded CC50 at 96 h of `CN1C=C(/N=N/c2ccc(F)cc2)CCC1` , please.
-- reply 90

-- ask Recorded CC50 at 96 h of `O=[N+]([O-])c1ccc(N2CCN(/C=C/N=N/c3ccccc3)CC2)cc1` , please.
-- reply 48

-- ask Recorded CC50 at 96 h of `c1ccc2c(/N=N\C3=C4CCCN4CCC3)cccc2c1` , please.
-- reply 51

====

Test: Cytotoxicity against mock-infected MDBK cells assessed as reduction in cell viability after 96 hrs by MTT assay
Assay type: cell-based, Bos taurus
Details: cattle
Please provide measured CC50 at 96 h for the entries that follow.
Respond numerically; units are µM and should not be typed.

-- ask Recorded CC50 at 96 h of `FC(F)(F)c1cccc(N2CCN(/C=C/N=N/c3ccccc3)CC2)c1` , please.
-- reply 9

-- ask Recorded CC50 at 96 h of `CN1CCC/C1=C\N=N\c1ccc(F)cc1` , please.
-- reply 59

-- ask Recorded CC50 at 96 h of `Clc1ccc(/N=N\C2=C3CCCN3CCC2)cc1Cl` , please.
-- reply 67

-- ask Recorded CC50 at 96 h of `Clc1cccc(/N=N\C2=C3CCCCN3CCC2)c1` , please.
-- reply 20

-- ask Recorded CC50 at 96 h of `Clc1ccc(/N=N\C2=C3CCCCN3CCC2)cc1` , please.
-- reply 60

-- ask Recorded CC50 at 96 h of `Fc1ccc(N2CCN(/C=C/N=N/c3ccccc3)CC2)cc1` , please.
-- reply 13

-- ask Recorded CC50 at 96 h of `FC(F)(F)c1cc(/N=N\C2=C3CCCCN3CCC2)cc(C(F)(F)F)c1` , please.
-- reply 31

-- ask Recorded CC50 at 96 h of `O=[N+]([O-])c1ccc(N2CCN(/C=C/N=N/c3ccccc3)CC2)cc1` , please.
-- reply 20

-- ask Recorded CC50 at 96 h of `CN1CCC/C1=C\N=N\c1ccc(Cl)c(Cl)c1` , please.
-- reply 90

-- ask Recorded CC50 at 96 h of `COc1ccc(N2CCN(/C=C/N=N/c3ccccc3)CC2)cc1` , please.
-- reply 19

-- ask Recorded CC50 at 96 h of `O=[N+]([O-])c1cccc(/N=N\C2=C3CCCN3CCC2)c1` , please.
-- reply 68

-- ask Recorded CC50 at 96 h of `Clc1ccc(/N=N/C=C2\CCCN2Cc2ccccc2)cc1` , please.
-- reply 18

-- ask Recorded CC50 at 96 h of `CC(=O)c1ccc(N2CCN(/C=C/N=N/c3ccccc3)CC2)cc1` , please.
-- reply 8

-- ask Recorded CC50 at 96 h of `CN1CCC/C1=C\N=N\c1ccc(Cl)cc1` , please.
-- reply 85

-- ask Recorded CC50 at 96 h of `C(=C\N1CCN(c2ncccn2)CC1)/N=N/c1ccccc1` , please.
-- reply 10

-- ask Recorded CC50 at 96 h of `CCOC(=O)N1CCN(/C=C/N=N/c2ccccc2)CC1` , please.
-- reply 13
